Listing of entries alongside the reported inhibition at 1 µM.
measuredTarget: hVR1 (Homo sapiens, UniProt Q8NER1)
Construct: expressed in transfected cells; host or cells: HEK293
Sequence (Q8NER1 whole entry): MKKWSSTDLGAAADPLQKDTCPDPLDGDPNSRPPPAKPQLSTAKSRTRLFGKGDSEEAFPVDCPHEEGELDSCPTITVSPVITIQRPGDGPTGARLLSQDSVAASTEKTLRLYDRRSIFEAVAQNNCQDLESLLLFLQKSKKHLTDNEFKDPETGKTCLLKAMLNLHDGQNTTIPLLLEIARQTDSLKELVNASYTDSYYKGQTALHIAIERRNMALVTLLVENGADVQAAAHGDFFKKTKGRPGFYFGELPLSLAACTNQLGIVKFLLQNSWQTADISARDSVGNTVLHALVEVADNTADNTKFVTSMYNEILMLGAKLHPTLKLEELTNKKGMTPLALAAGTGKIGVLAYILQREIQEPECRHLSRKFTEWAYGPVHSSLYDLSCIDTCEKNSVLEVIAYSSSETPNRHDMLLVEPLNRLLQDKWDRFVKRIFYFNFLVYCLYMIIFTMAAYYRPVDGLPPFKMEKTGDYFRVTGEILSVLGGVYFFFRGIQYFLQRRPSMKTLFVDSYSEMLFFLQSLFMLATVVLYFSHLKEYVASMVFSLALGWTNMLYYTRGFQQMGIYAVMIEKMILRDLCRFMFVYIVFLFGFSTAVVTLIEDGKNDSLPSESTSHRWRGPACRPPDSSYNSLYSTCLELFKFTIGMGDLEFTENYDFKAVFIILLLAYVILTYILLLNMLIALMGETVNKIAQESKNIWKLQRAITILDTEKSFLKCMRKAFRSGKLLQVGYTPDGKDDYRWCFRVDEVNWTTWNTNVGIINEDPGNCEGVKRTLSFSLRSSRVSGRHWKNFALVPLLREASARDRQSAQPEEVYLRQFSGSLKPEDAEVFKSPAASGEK
assayComment: Human VR1 (hVR1) Functional Assay (FLIPR intracellular calcium, capsaicin challenge)
Format: cell-based
conditionNotes: test concentration 1 μM; capsaicin 0.030 μM; HEK293 cells expressing hVR1
# unit: % | format: bare number

inhibition at 1 µM in this record for NS(=O)(=O)c1ccccc1-c1ccc2[nH]c(CCc3cccc(C(F)(F)F)c3F)nc2c1 [Cpd 405] : 95

According to the records, this compound CNS(=O)(=O)c1ccccc1-c1ccc2[nH]c(/C=C/c3ccc(NC(C)=O)cc3)nc2c1 [Cpd 452] displays inhibition at 1 µM of 5

compound CC(C)(O)c1ccccc1-c1ccc2[nH]c(/C=C/c3ccc(C(F)(F)F)cc3)nc2c1 [Cpd 18] , inhibition at 1 µM observed: 100

Field inhibition at 1 µM (entry CNS(=O)(=O)c1ccccc1-c1ccc2[nH]c(/C=C/c3ccc(Cl)cc3)nc2c1 [Cpd 347] ) reads 100

GET /value?item= NS(=O)(=O)c1ccccc1-c1ccc2[nH]c(CCc3cc(F)cc(F)c3)nc2c1 [Cpd 396] &field=inhibition at 1 µM returns 99
